The measurements presented in this section are drawn from ChEMBL document CHEMBL5505984.

Tested on: dengue virus type 2
assayOverview: Antiviral activity Dengue virus 2 by cell based assay
Assay type: functional, organism-based
measurementKind: EC50 (µM)
Field: numeric (µM). Do not append units.

Req: Look up EC50: N/C(=N\O)c1cccc(CNC(=O)c2cn(Cc3cccc(Br)c3)c3ccc(-c4cccc(/C(N)=N/O)c4)cc23)c1
Resp: 1

Req: Name the reported EC50 value associated with the molecule N/C(=N\O)c1ccc(CNC(=O)c2cn(Cc3cccc(Br)c3)c3ccc(-c4cccc(/C(N)=N/O)c4)cc23)cc1
Resp: 2.27

Req: Field request: EC50 | item: N/C(=N\O)c1cccc(CNC(=O)c2cn(Cc3cccc(Br)c3)c3cc(-c4cccc(/C(N)=N/O)c4)ccc23)c1
Resp: 6.9

Req: Name the recorded EC50 for N/C(=N\O)c1cccc(-c2ccc3c(C(=O)N4CCN(c5cccc(/C(N)=N/O)c5)CC4)cn(Cc4cccc(Br)c4)c3c2)c1 .
Resp: 1.23

###

System: dengue virus type 2
assayOverview: Antiviral activity against Dengue virus 2 D2Y10 infected in human THP-1 cells assessed as inhibition of secondary antibody dependent enhancement-driven infection relative to control
Type: functional
measurementKind: inhibition (INH) (%)
Just the number in %, nothing appended.

Req: // map N/C(=N\O)c1ccc(CN2CCc3cn(Cc4ccc(Br)cc4)c4cc(-c5cccc(/C(N)=N/O)c5)cc(c34)C2=O)cc1 to recorded inhibition (INH) (system: dengue virus type 2)
Resp: 100

Req: # get_value(readout= inhibition (INH), system= dengue virus type 2) for N/C(=N\O)c1ccc(CN2CCc3cn(Cc4cccc(Br)c4)c4cc(-c5cccc(/C(N)=N/O)c5)cc(c34)C2=O)cc1
Resp: 100

Req: Can you look up inhibition (INH) on dengue virus type 2 for N/C(=N\O)c1ccc(CN2CCc3cn(Cc4ccc(Br)cc4)c4cc(-c5ccc(/C(N)=N/O)s5)cc(c34)C2=O)cc1 ?
Resp: 60

Req: Hello, I am looking for reported inhibition (INH) with dengue virus type 2 for C#C[C@@]1(O)[C@H](O)[C@@H](CO)O[C@H]1n1ccc2c(N)ncnc21 . Could you help?
Resp: 100
